assay: blockers of RIG-like receptor reporter activation – cell-based, Sendai virus stimulus, luciferase, 10K MLSCN set, TLR/RLR signaling modifier project, primary screen (AID 602276); conditions: HEK293 RL24 IRF3 luciferase reporter, at 10 µM, stronger effect = higher value;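 further: firefly luciferase from ISG56 promoter only with Renilla not read in this screen; 0% = Sendai virus plus DMSO and 100% = medium plus DMSO without virus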
PARAMETER MEASURED: inhibition (%)
Provide only the numeric value, understood in %.

For record O=C(c1cccs1)c1cn(CC(=O)N2CCc3ccccc3C2)c2ccccc12 the listed inhibition is 11.1

For record CCCn1c(SCC(=O)Nc2nnc(-c3ccccc3)s2)nnc1-c1ccccn1 the listed inhibition is -15.8

For record Cc1ccccc1NC(=O)c1ccc(NC(=O)c2ccco2)cc1 the listed inhibition is -7.81

For record CCCCNC(=O)OC(C)CNC(=O)Oc1cccc(C)c1 (stereo unspecified) the listed inhibition is 22.3

For record O=C(NCCN1CCOCC1)C1CC(=O)N(c2ccc(F)c(Cl)c2)C1 (stereo unspecified) the listed inhibition is 10.9

For record CC(=O)N1CCc2cc(S(=O)(=O)NCCC(=O)NC3CCCc4ccccc43)ccc21 (stereo unspecified) the listed inhibition is -3.18

For record CS(=O)(=O)N1CCc2cc(C(=O)N3CCCCC3)ccc21 the listed inhibition is 17.7

For record Cc1ccc(NC(=O)CSc2nnc(NC(=O)CN3CCOCC3)s2)cc1 the listed inhibition is 12.7

For record Cn1nc(-c2ccc(C(=O)NCC3CCCO3)cc2)c2ccccc2c1=O (stereo unspecified) the listed inhibition is 19.3

For record Cc1onc(-c2c(Cl)cccc2Cl)c1C(=O)NCCN1CCOCC1 the listed inhibition is 21.3

For record Cc1ccc(NC(=O)N2CCC(c3nc4c(nnn4Cc4cccc(Cl)c4)c(=O)[nH]3)CC2)cc1 the listed inhibition is 8.55
